Measured Dmax values are reported for all entries that follow.
Target: IRAK-4 (Homo sapiens, UniProt Q9NWZ3)
Assay: IRAK-4 ELISA, PBMC degradation
Format: cell-based
Design: endogenous in cells; host or cells: PBMC
Settings: treated overnight

Recorded Dmax, per entry:
INSERT INTO assay_data (molecule, assayed_system, observation_type, observed_result) VALUES
  ('O=C1CCC(N2C(=O)c3ccc(N4CC(N(CC(F)F)C5CCC(n6cc7cc(NC(=O)c8cnn9cccnc89)c(OCC8CC8)cc7n6)CC5)C4)cc3C2=O)C(=O)N1 (stereo not drawn)', 'IRAK-4 (Homo sapiens, UniProt Q9NWZ3)', 'Dmax', '≥ 90%'),
  ('CC(C)Oc1cc2c(cc1NC(=O)c1cnn3cccnc13)CN(C1CCN(C[C@H]3CCN(c4ccc5c(c4)C(=O)N(C4CCC(=O)NC4=O)C5=O)C3)CC1)C2=O (stereo partly drawn)', 'IRAK-4 (Homo sapiens, UniProt Q9NWZ3)', 'Dmax', '≥ 90%'),
  ('CC(C)Oc1cc2c(cc1NC(=O)c1cnn3cccnc13)CN(C1CCN(C(C)(C)C3CN(c4ccc(C(=O)NC5CCC(=O)NC5=O)c(F)c4)C3)CC1)C2=O (stereo not drawn)', 'IRAK-4 (Homo sapiens, UniProt Q9NWZ3)', 'Dmax', '≥ 90%'),
  ('O=C1CCC(N2C(=O)c3ccc(N4CC[C@H](N5CCC(n6cc7cc(NC(=O)c8cnn9cccnc89)c(OCC8CC8)cc7n6)CC5)C4)cc3C2=O)C(=O)N1 (stereo partly drawn)', 'IRAK-4 (Homo sapiens, UniProt Q9NWZ3)', 'Dmax', '80 to 90%');

I would be grateful if you could share the reported Dmax for O=C1CCC(N2Cc3ccc(N4CCN(C[C@H]5CC[C@H](n6cc7cc(NC(=O)c8cnn9cccnc89)c(OCC(F)F)cc7n6)CC5)CC4)cc3C2=O)C(=O)N1 (stereo partly drawn) . ≥ 90%

Next molecule up: COc1cc(N2CC(CN3CCC(n4cc5cc(NC(=O)c6cnn7cccnc67)c(OCC6CC6)cc5n4)CC3)C2)cc2c1C(=O)N(C1CCC(=O)NC1=O)C2 (stereo not drawn) ≥ 90%

Thanks! And CC(C)Oc1cc2c(cc1NC(=O)c1cnn3cccnc13)CN([C@H]1CC[C@H](N3CCN(c4ccc5c(c4)CN(C4CCC(=O)NC4=O)C5=O)CC3)CC1)C2=O (stereo partly drawn) ? ≥ 90%

Could you do the same for O=C1CCC(N2C(=O)c3ccc(N4CC(F)(CN5CCC(n6cc7cc(NC(=O)c8cnn9cccnc89)c(N8CCC(N9CCC9)CC8)cc7n6)CC5)C4)cc3C2=O)C(=O)N1 (stereo not drawn) , please? 80 to 90%

Same again, this time with O=C1CCC(N2C(=O)c3ccc(N4CC(CN5CCC(n6cc7cc(NC(=O)c8cnn9cccnc89)c(OC8CCC8)cc7n6)CC5)C4)cc3C2=O)C(=O)N1 (stereo not drawn) 80 to 90%

Record: CC(C)(C1CN(c2ccc3c(c2)C(=O)N(C2CCC(=O)NC2=O)C3=O)C1)N1CCC(n2cc3cc(NC(=O)c4cnn5cccnc45)c(OCC4CC4)cc3n2)CC1 (stereo not drawn) ≥ 90%

Also Cn1c(=O)n(C2CCC(=O)NC2=O)c2cccc(N3CC(F)(CN4CCC(n5cc6cc(NC(=O)c7cnn8cccnc78)c(OCC7CC7)cc6n5)CC4)C3)c21 (stereo not drawn) ? ≥ 90%

Would you kindly repeat that for CN(C1CN(c2ccc3c(c2)C(=O)N(C2CCC(=O)NC2=O)C3=O)C1)[C@H]1CC[C@H](n2cc3cc(NC(=O)c4cnn5cccnc45)c(OCC4CC4)cc3n2)CC1 (stereo partly drawn) ? ≥ 90%

----------
Molecular target: IRAK-4 (Homo sapiens)
Sequence (Q9NWZ3 1-460): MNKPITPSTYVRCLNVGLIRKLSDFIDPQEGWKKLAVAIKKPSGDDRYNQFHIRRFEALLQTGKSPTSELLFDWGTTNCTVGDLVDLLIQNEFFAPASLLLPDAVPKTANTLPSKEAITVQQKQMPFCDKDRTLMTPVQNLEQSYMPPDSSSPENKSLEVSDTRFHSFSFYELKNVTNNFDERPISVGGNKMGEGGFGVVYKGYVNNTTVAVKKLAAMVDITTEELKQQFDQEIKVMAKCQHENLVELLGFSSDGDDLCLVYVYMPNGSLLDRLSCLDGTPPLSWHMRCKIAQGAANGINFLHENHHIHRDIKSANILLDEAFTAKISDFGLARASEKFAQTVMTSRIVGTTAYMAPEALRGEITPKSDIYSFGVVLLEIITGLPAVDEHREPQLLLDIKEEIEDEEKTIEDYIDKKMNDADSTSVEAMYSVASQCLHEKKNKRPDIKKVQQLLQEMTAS
Assay: IRAK-4 ELISA, PBMC degradation
Assay type: cell-based
Design: endogenous in cells; host or cells: PBMC
Conditions: treated overnight
Reported Dmax values follow for various molecules

Guide cases for Dmax, answers given:
INSERT INTO measurements (molecule, assayed_system, observation_type, observed_result) VALUES
  ('O=C1CCC(N2C(=O)c3ccc(N4CC(CN5CCC([C@H](F)CN6Cc7cc(NC(=O)c8cnn9cccnc89)c(N8CCOCC8)cc7C6=O)CC5)C4)cc3C2=O)C(=O)N1 (stereo partly shown)', 'IRAK-4 (Homo sapiens)', 'Dmax', '80 to 90%'),
  ('CC(C)Oc1cc2c(cc1NC(=O)c1cnn3cccnc13)CN(C1CCN(CC3(F)CN(c4ccc5c(c4F)CN(C4CCC(=O)NC4=O)C5=O)C3)CC1)C2=O (stereo not shown)', 'IRAK-4 (Homo sapiens)', 'Dmax', '70 to 80%'),
  ('CC(C)Oc1cc2c(cc1NC(=O)c1cnn3cccnc13)CN(C1CCN(CCN(C)c3ccc4c(c3)C(=O)N(C3CCC(=O)NC3=O)C4=O)CC1)C2=O (stereo not shown)', 'IRAK-4 (Homo sapiens)', 'Dmax', '≥ 90%'),
  ('O=C1CCC(N2Cc3ccc(N4CC(F)(CN5CCC(n6cc7cc(NC(=O)c8cnn9cccnc89)c(OCC8CC8)cc7n6)CC5)C4)cc3C2=O)C(=O)N1 (stereo not shown)', 'IRAK-4 (Homo sapiens)', 'Dmax', '70 to 80%');

Recall the recorded Dmax for CC(C)Oc1cc2nn(C3CCN(CC4(F)CN(c5ccc6c(c5)C(=O)N(C5CCC(=O)NC5=O)C6=O)C4)CC3)cc2cc1NC(=O)c1cnn2ccc(N3CCOCC3)nc12 (stereo not shown) with IRAK-4 (Homo sapiens) and state it. ≥ 90%

Proceed to O=C1CC[C@@H](N2C(=O)c3ccc(N4CC(F)(CN5CCC(n6cc7cc(NC(=O)c8cnn9cccnc89)c(OCC8CC8)cc7n6)CC5)C4)cc3C2=O)C(=O)N1 ≥ 90%

Follow-up item: CC(C)Oc1cc2c(cc1NC(=O)c1cnn3cccnc13)CN([C@H]1CC[C@H](CN3CCN(c4ccc5c(c4)C(=O)N(C4CCC(=O)NC4=O)C5=O)CC3)CC1)C2=O (stereo partly shown) ≥ 90%

----------
Biological target: IRAK-4 (Homo sapiens)
Test: IRAK-4 ELISA, OCI-Ly10 degradation
Format: cell-based
Set-up: endogenous in cells
Settings: OCI-Ly10 cells, treated overnight
observation type: DC50

INSERT INTO results (compound, observed_result) VALUES
  ('CC(C)(C1CCN(c2ccc3c(c2)C(=O)N(C2CCC(=O)NC2=O)C3=O)CC1)N1CCC(N2Cc3cc(NC(=O)c4cnn5cccnc45)c(OCC4CC4)cc3C2=O)CC1 (centres unmarked)', '50 to 100 nM'),
  ('O=C1CCC(N2C(=O)c3ccc(N4CCC(F)(CN5CCC(N6Cc7cc(NC(=O)c8cnn9cccnc89)c(OCC8CC8)cc7C6=O)CC5)CC4)cc3C2=O)C(=O)N1 (centres unmarked)', '50 to 100 nM'),
  ('COc1cc2nn(C3CCN(CC4CCN(c5ccc6c(c5)C(=O)N(C5CCC(=O)NC5=O)C6=O)CC4)CC3)cc2cc1NC(=O)c1cnn2cccnc12 (centres unmarked)', '< 10 nM');

Looking for the measured DC50 of CC(C)Oc1cc2c(cc1NC(=O)c1cnn3cccnc13)CN([C@H]1CC[C@@H](N3CC4(CN(c5ccc6c(c5)C(=O)N(C5CCC(=O)NC5=O)C6=O)C4)C3)CC1)C2=O (some centres unmarked) , can you help? < 10 nM

O=C1CCC(N2Cc3cc(N4CCC(CN5CCC(n6cc7cc(NC(=O)c8cnn9cccnc89)c(OCC8CC8)cc7n6)CC5)CC4)ccc3C2=O)C(=O)N1 (centres unmarked) ? < 10 nM

Entry to check: CC(C)Oc1cc2c(cc1NC(=O)c1cnn3cccnc13)CN(C1CCN(CCc3ccc4c(c3)CN(C3CCC(=O)NC3=O)C4=O)CC1)C2=O (centres unmarked) < 10 nM

Try this compound next: COc1cc2nn(C3CCN(CC4(F)CN(c5ccc6c(c5)CN(C5CCC(=O)NC5=O)C6=O)C4)CC3)cc2cc1NC(=O)c1cnn2cccnc12 (centres unmarked) < 10 nM

Would you kindly repeat that for CC(C)Oc1cc2c(cc1NC(=O)c1cnn3cccnc13)CN([C@H]1CCN(CC3CCN(c4ccc5c(c4)C(=O)N(C4CCC(=O)NC4=O)C5=O)CC3)C[C@@H]1F)C2=O (some centres unmarked) ? 10 to 50 nM

Check CC(C)Oc1cc2c(cc1NC(=O)c1cnn3cccnc13)CN(C1CCN(CCc3ccc4c(c3)C(=O)N(C3CCC(=O)NC3=O)C4=O)CC1)C2=O (centres unmarked) too. 10 to 50 nM

What do you have for COc1cc2nn(C3CCN(CC4CCN(c5ccc6c(c5)C(=O)N(C5CCC(=O)NC5=O)C6=O)CC4)CC3)cc2cc1NC(=O)c1cnn2cc(C)cnc12 (centres unmarked) ? 10 to 50 nM

And what about the compound O=C1CCC(N2C(=O)c3ccc(N4CC(CN5CCC(N6Cc7cc(NC(=O)c8cnn9cccnc89)c(OCC8CC8)cc7C6=O)CC5)C4)cc3C2=O)C(=O)N1 (centres unmarked) ? < 10 nM

Same read-out for O=C1CCC(NC(=O)c2ccc(N3CC(CN4CCC(n5cc6cc(NC(=O)c7cnn8cccnc78)c(OCC7CC7)cc6n5)CC4)C3)cc2F)C(=O)N1 (centres unmarked) ? < 10 nM

Then this compound: O=C1CCC(NC(=O)c2ccc(N3CCC(CN4CCC(n5cc6cc(NC(=O)c7cnn8cc(Cl)cnc78)c(OCC7CC7)cc6n5)CC4)CC3)cc2F)C(=O)N1 (centres unmarked) 10 to 50 nM

Note, next up: COc1cc2nn(C3CCN(CC4(F)CN(c5ccc6c(c5)C(=O)N(C5CCC(=O)NC5=O)C6=O)C4)CC3)cc2cc1NC(=O)c1cnn2cccnc12 (centres unmarked) < 10 nM
